Tested on: ATP;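 also: ATP exposure 15 min at 22 °C before imaging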
Experiment: switch fluorescence ratio, 500 uM ATP over buffer (Cy3 cluster intensity, sum of 5 cycles each) (fold (ratio)); higher = stronger signal-on switching upon ATP binding; sequences stand for … in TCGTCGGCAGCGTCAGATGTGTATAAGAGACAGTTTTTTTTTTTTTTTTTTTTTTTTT…TC
Conditions: aptamer strand: ATP DNA aptamer (quencher-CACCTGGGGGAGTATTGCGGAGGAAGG + anchor), 100 nM annealed; ATP concentration: 500 uM
Below, each entry is listed with its recorded switch fluorescence ratio.

{"residues": "CTCGATGGGA", "switch fluorescence ratio": 0.974}
{"residues": "TGATTATTGG", "switch fluorescence ratio": 1}
{"residues": "ACTTCAAGGA", "switch fluorescence ratio": 1.04}
{"residues": "TGTTGGAGGC", "switch fluorescence ratio": 0.971}
{"residues": "TCCTGTTACA", "switch fluorescence ratio": 1.03}
{"residues": "AGACATTCCT", "switch fluorescence ratio": 1.3}
{"residues": "GAGTTCACGT", "switch fluorescence ratio": 1.04}
{"residues": "TGCTAGTTCT", "switch fluorescence ratio": 0.99}
{"residues": "GCACGATGGT", "switch fluorescence ratio": 0.972}
{"residues": "TTGTTTTATC", "switch fluorescence ratio": 1}
{"residues": "GGGGTACCCA", "switch fluorescence ratio": 0.993}
{"residues": "GCACGGGCAC", "switch fluorescence ratio": 1.18}
{"residues": "TATGGGAGGT", "switch fluorescence ratio": 1.04}
{"residues": "AGTTGCTCCT", "switch fluorescence ratio": 0.986}
{"residues": "ATAGGGCCAG", "switch fluorescence ratio": 1.06}

---

Test system: ATP;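 also: ATP exposure 15 min at 22 °C before imaging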
Assay: switch fluorescence ratio, 500 uM ATP over buffer (Cy3 cluster intensity, sum of 5 cycles each) (fold (ratio)); higher = stronger signal-on switching upon ATP binding; sequences stand for … in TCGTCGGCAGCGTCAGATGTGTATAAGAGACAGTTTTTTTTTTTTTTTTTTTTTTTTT…TC
Conditions: aptamer strand: ATP DNA aptamer (quencher-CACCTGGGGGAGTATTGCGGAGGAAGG + anchor), 100 nM annealed; ATP concentration: 500 uM

{"residues": "AGGCGTAAAT", "switch fluorescence ratio": 0.997}
{"residues": "GGATAAGGAC", "switch fluorescence ratio": 0.984}
{"residues": "TCTTAAAAT", "switch fluorescence ratio": 1.01}
{"residues": "TGGTCGTGGG", "switch fluorescence ratio": 1.01}
{"residues": "AATAAGACGG", "switch fluorescence ratio": 1.01}
{"residues": "AGTTAGGGTT", "switch fluorescence ratio": 0.999}
{"residues": "TAGATCATGC", "switch fluorescence ratio": 0.994}
{"residues": "GCTTTTAGGA", "switch fluorescence ratio": 1}
{"residues": "AATTTGGAAG", "switch fluorescence ratio": 0.981}
{"residues": "TTTCGTATTT", "switch fluorescence ratio": 0.992}
{"residues": "TTAGCGAAGG", "switch fluorescence ratio": 1}
{"residues": "AGGGTTGGGT", "switch fluorescence ratio": 1.01}
{"residues": "TGTTATAATT", "switch fluorescence ratio": 1}
{"residues": "TTCCTTGGAG", "switch fluorescence ratio": 1.01}

---

System: ATP;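 also: ATP exposure 15 min at 22 °C before imaging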
Test: switch fluorescence ratio, 500 uM ATP over buffer (Cy3 cluster intensity, sum of 5 cycles each) (fold (ratio)); higher = stronger signal-on switching upon ATP binding; sequences stand for … in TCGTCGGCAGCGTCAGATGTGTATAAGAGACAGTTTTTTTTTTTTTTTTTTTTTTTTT…TC
Details: aptamer strand: ATP DNA aptamer (quencher-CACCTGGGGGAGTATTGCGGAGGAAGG + anchor), 100 nM annealed; ATP concentration: 500 uM

{"residues": "CAGGATGTAT", "switch fluorescence ratio": 0.985}
{"residues": "CGGGCTTTAA", "switch fluorescence ratio": 0.995}
{"residues": "AGGATGAAAG", "switch fluorescence ratio": 0.99}
{"residues": "GGCGGAGAGG", "switch fluorescence ratio": 1.08}
{"residues": "CAAAATATGC", "switch fluorescence ratio": 1.14}
{"residues": "CGAGGTTATT", "switch fluorescence ratio": 1}
{"residues": "GGTCGGGTTT", "switch fluorescence ratio": 1.01}
{"residues": "TTCGCTGTAT", "switch fluorescence ratio": 1.01}
{"residues": "ACTAGGAATC", "switch fluorescence ratio": 1.04}
{"residues": "GGAATGACGA", "switch fluorescence ratio": 0.989}
{"residues": "ACCACGCGGG", "switch fluorescence ratio": 1.01}
{"residues": "CCGAGATTGC", "switch fluorescence ratio": 1.95}
{"residues": "GACGGGGACA", "switch fluorescence ratio": 1.06}
{"residues": "ATTGGTTTGT", "switch fluorescence ratio": 0.998}
{"residues": "GGTATAATGG", "switch fluorescence ratio": 0.971}
{"residues": "TTTTGTTACT", "switch fluorescence ratio": 1.01}
{"residues": "CGGTTATCGG", "switch fluorescence ratio": 1}
{"residues": "GATGAAGGTG", "switch fluorescence ratio": 1.28}
{"residues": "CTTTTCGGCT", "switch fluorescence ratio": 1.04}
{"residues": "GGGTGGTCTG", "switch fluorescence ratio": 1.01}
{"residues": "GGCCGACTTG", "switch fluorescence ratio": 1}
{"residues": "GGGGAATGGG", "switch fluorescence ratio": 1.01}
{"residues": "AGATGCCGAC", "switch fluorescence ratio": 1.02}
{"residues": "GGGGCTTTCG", "switch fluorescence ratio": 1}
{"residues": "ATGTAGTTGG", "switch fluorescence ratio": 1}
{"residues": "AGGGTGGTGT", "switch fluorescence ratio": 0.976}
{"residues": "AGTGAGGATC", "switch fluorescence ratio": 0.993}
{"residues": "GAAAATGTTG", "switch fluorescence ratio": 0.991}
{"residues": "ACCCGAGGTC", "switch fluorescence ratio": 1.09}

---

System: ATP;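 also: ATP exposure 15 min at 22 °C before imaging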
Test: switch fluorescence ratio, 500 uM ATP over buffer (Cy3 cluster intensity, sum of 5 cycles each) (fold (ratio)); higher = stronger signal-on switching upon ATP binding; sequences stand for … in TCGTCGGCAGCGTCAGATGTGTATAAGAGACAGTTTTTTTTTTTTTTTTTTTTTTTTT…TC
Conditions: aptamer strand: ATP DNA aptamer (quencher-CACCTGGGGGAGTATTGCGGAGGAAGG + anchor), 100 nM annealed; ATP concentration: 500 uM
The following sequences are shown together with reported switch fluorescence ratio values.

{"residues": "CCACTGGGTG", "switch fluorescence ratio": 4.39}
{"residues": "GATCTTGCCT", "switch fluorescence ratio": 1.02}
{"residues": "TGTATGATGG", "switch fluorescence ratio": 1.02}
{"residues": "TGGGTTTGGC", "switch fluorescence ratio": 1.02}
{"residues": "CAAAAAGGGG", "switch fluorescence ratio": 0.964}
{"residues": "GCAAGGGTGG", "switch fluorescence ratio": 1}
{"residues": "CTATTTAGCC", "switch fluorescence ratio": 1.02}
{"residues": "GGTCAATCTA", "switch fluorescence ratio": 0.946}
{"residues": "GTCGGGGTAT", "switch fluorescence ratio": 0.991}
{"residues": "GGGAAAGATT", "switch fluorescence ratio": 1}
{"residues": "AAGTTGTTGT", "switch fluorescence ratio": 1.01}
{"residues": "GCCTTAGAGT", "switch fluorescence ratio": 1.03}
{"residues": "GGATTTTGTT", "switch fluorescence ratio": 0.998}
{"residues": "TCTGGGTTGG", "switch fluorescence ratio": 1.01}
{"residues": "GTGGGCTGTT", "switch fluorescence ratio": 1.01}
{"residues": "TTTTGGTAGG", "switch fluorescence ratio": 1.02}
{"residues": "CCTGGGATT", "switch fluorescence ratio": 1.02}
{"residues": "TCGGTAAATT", "switch fluorescence ratio": 1.05}
{"residues": "TATTTTTATA", "switch fluorescence ratio": 0.992}
{"residues": "GGGAGGAAAA", "switch fluorescence ratio": 1.02}
{"residues": "GTACGAGTCC", "switch fluorescence ratio": 1.01}
{"residues": "GGGTCCAAAT", "switch fluorescence ratio": 1.02}
{"residues": "GGGGAAAGTA", "switch fluorescence ratio": 1.03}
{"residues": "TGCTTTTTCA", "switch fluorescence ratio": 0.989}
{"residues": "CTTAATTTTT", "switch fluorescence ratio": 0.98}
{"residues": "ATTGTGTTAG", "switch fluorescence ratio": 1.03}
{"residues": "TTTTTTGACG", "switch fluorescence ratio": 0.994}
{"residues": "GATTGGCGAG", "switch fluorescence ratio": 0.998}
{"residues": "ACAGTCTCTG", "switch fluorescence ratio": 1.03}
{"residues": "CTTGCATTTT", "switch fluorescence ratio": 1.04}
{"residues": "ACGTGGGGCT", "switch fluorescence ratio": 1.05}
{"residues": "CGTTTCAGCG", "switch fluorescence ratio": 0.952}
{"residues": "GGTTGGGGCT", "switch fluorescence ratio": 0.987}
{"residues": "GACAGGGGCC", "switch fluorescence ratio": 0.987}
